Sourced from patent US8901315B2

# Tested system: PDE 4 (phosphodiesterase IV)
# Measurement protocol: PDE 4 inhibiting effect (3H-cAMP hydrolysis, PDE 4 active fraction from Balb/c mouse liver)
# Format: biochemical
# Details: PDE 4 fraction from Balb/c mice liver, 0.064 μM cAMP, 2 hours at 25° C.; read-out: PDE4 IC50
Reported IC50 values follow for various compounds
Measure name: IC50 (nM)

[[record]]
compound = "CNS(=O)(=O)c1cccc(NC(=O)c2cc3c(C)nn(C4CCCCC4)c3s2)c1"
measure_name = "IC50"
unit_text = "nM"
censor_symbol = ">"
observed_result = 30000

[[record]]
compound = "Cc1nn(C2CCCCC2)c2sc(C(=O)Nc3ccc(C(=O)N4CCCN(C)CC4)nc3)cc12"
measure_name = "IC50"
unit_text = "nM"
censor_symbol = "="
observed_result = 2400

[[record]]
compound = "Cc1nn(C2CCCCC2)c2sc(C(=O)N[C@H]3C[C@@H]3CO)cc12 (racemic)"
measure_name = "IC50"
unit_text = "nM"
censor_symbol = "="
observed_result = 28000

[[record]]
compound = "Cc1nn(C2CCCCC2)c2sc(C(=O)Nc3ccc(N4CCCN(C)CC4)c(F)c3)cc12"
measure_name = "IC50"
unit_text = "nM"
censor_symbol = "="
observed_result = 980

[[record]]
compound = "Cc1nn(C2CCCCC2)c2sc(C(=O)Nc3ccc(N4CCC(O)CC4)c(Cl)c3)cc12"
measure_name = "IC50"
unit_text = "nM"
censor_symbol = "="
observed_result = 2000

[[record]]
compound = "Cc1nn(C2CCCCC2)c2sc(C(=O)N[C@H]3CC[C@H](N4CCC(N(C)C)CC4)CC3)cc12"
measure_name = "IC50"
unit_text = "nM"
censor_symbol = "="
observed_result = 860

[[record]]
compound = "CC(=O)N[C@H]1CC[C@H](NC(=O)c2cc3c(C)nn(C4CCCCC4)c3s2)CC1"
measure_name = "IC50"
unit_text = "nM"
censor_symbol = "="
observed_result = 2500

[[record]]
compound = "Cc1nn(C2CCCCC2)c2sc(C(=O)Nc3ccc(N4CCC(O)CC4)c(C(=O)O)c3)cc12"
measure_name = "IC50"
unit_text = "nM"
censor_symbol = "="
observed_result = 930

[[record]]
compound = "Cc1nn(C2CCCCC2)c2sc(C(=O)N[C@H]3CC[C@H](N4CCC(O)CC4)CC3)cc12"
measure_name = "IC50"
unit_text = "nM"
censor_symbol = "="
observed_result = 1700

[[record]]
compound = "Cc1nn(C2CCOCC2)c2sc(C(=O)Nc3ccc(N4CCC(O)CC4)c(F)c3)cc12"
measure_name = "IC50"
unit_text = "nM"
censor_symbol = "="
observed_result = 4800

[[record]]
compound = "COc1cc(NC(=O)c2cc3c(C)nn(C4CCCCC4)c3s2)ccc1NC(C)=O"
measure_name = "IC50"
unit_text = "nM"
censor_symbol = "="
observed_result = 1800

[[record]]
compound = "CC[C@H](CN1C(=O)CNC1=O)NC(=O)c1cc2c(C)nn(C3CCCCC3)c2s1"
measure_name = "IC50"
unit_text = "nM"
censor_symbol = "="
observed_result = 4900

[[record]]
compound = "Cc1nn(C2CCCCC2)c2sc(C(=O)Nc3ccc(N4CCC(O)CC4)c(C#N)c3)cc12"
measure_name = "IC50"
unit_text = "nM"
censor_symbol = "="
observed_result = 3400

[[record]]
compound = "Cc1nn(C2CCCCC2)c2sc(C(=O)Nc3ccc(CN4C(=O)CN(C)C4=O)cc3)cc12"
measure_name = "IC50"
unit_text = "nM"
censor_symbol = "="
observed_result = 2400

[[record]]
compound = "Cc1nn(C2CCCCC2)c2sc(C(=O)N[C@H]3CC[C@H](N4CCCNCC4)CC3)cc12"
measure_name = "IC50"
unit_text = "nM"
censor_symbol = "="
observed_result = 1300

